# tested_system: ERK2 WT (Mus musculus)
# Construct: His6; made in house; host or cells: E. coli BL21(DE3), co-expressed with GST-MEK1ΔN3
# Sequence (P63085 whole entry): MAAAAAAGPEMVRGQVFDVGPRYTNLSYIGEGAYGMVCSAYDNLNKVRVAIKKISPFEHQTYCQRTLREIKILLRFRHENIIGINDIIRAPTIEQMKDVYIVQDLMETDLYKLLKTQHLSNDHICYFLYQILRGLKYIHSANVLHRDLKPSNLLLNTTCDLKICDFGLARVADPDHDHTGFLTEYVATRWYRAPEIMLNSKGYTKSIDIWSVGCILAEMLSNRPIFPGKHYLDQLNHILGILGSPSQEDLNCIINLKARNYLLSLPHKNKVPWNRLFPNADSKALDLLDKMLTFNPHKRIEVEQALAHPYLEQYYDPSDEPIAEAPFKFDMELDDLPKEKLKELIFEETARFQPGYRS
# method_description: Competitive peptide kinase assay (D-peptide inhibition), ERK2 WT
# Assay type: biochemical
# settings: Table 2, 5 μM D-site dependent reporter peptide, 10 nM ERK2, 10 μM ATP, pH 7.4, fluorescence, mean of three independent replicates
Peptide text beside a SMILES is read from it.
The entries below are paired with their reported pIC50.
Remember the convention: pIC50 equals -log10 of concentration in molar.

Record excerpt, results attached:
CC(C)C[C@H](NC(=O)[C@H](CCCNC(=N)N)NC(=O)[C@@H]1CCCN1C(=O)[C@H](CC(C)C)NC(=O)CNC(=O)[C@H](CCCNC(=N)N)NC(=O)[C@H](CCCNC(=N)N)NC(=O)[C@H](C)NC(=O)[C@H](CCCNC(=N)N)NC(=O)[C@H](CC(N)=O)NC(=O)[C@H](C)NC(=O)[C@@H](N)Cc1ccc(O)cc1)C(=O)N[C@@H](C)C(=O)N[C@H](C(=O)N[C@@H](CO)C(=O)N[C@@H](CC(=O)O)C(=O)O)C(C)C [ISG20 peptide I1N]; 3.72
CC[C@H](C)[C@H](NC(=O)[C@H](C)NC(=O)[C@@H](N)Cc1ccc(O)cc1)C(=O)NCC(=O)N[C@@H](CCCNC(=N)N)C(=O)N[C@@H](C)C(=O)N[C@@H](CCCNC(=N)N)C(=O)N[C@@H](CCCNC(=N)N)C(=O)NCC(=O)N[C@@H](CC(C)C)C(=O)N1CCC[C@H]1C(=O)N[C@@H](CCCNC(=N)N)C(=O)N[C@@H](CC(C)C)C(=O)N[C@@H](C)C(=O)N[C@H](C(=O)N[C@@H](CO)C(=O)N[C@@H](CC(=O)O)C(=O)O)C(C)C [ISG20 peptide G2+] (H-YAIGRARRGLPRLAVSD-OH); 3.92

Consider the additional compound presented here.
Request: Recorded pIC50 of CC[C@H](C)[C@H](NC(=O)[C@H](C)NC(=O)[C@@H](N)Cc1ccc(O)cc1)C(=O)N[C@@H](CCCNC(=N)N)C(=O)N[C@@H](C)C(=O)N[C@@H](CCCNC(=N)N)C(=O)N[C@@H](CCCNC(=N)N)C(=O)N[C@@H](CCC(N)=O)C(=O)N[C@@H](CC(C)C)C(=O)N1CCC[C@H]1C(=O)N[C@@H](CCCNC(=N)N)C(=O)N[C@@H](CC(C)C)C(=O)N[C@@H](C)C(=O)N[C@H](C(=O)N[C@@H](CO)C(=O)N[C@@H](CC(=O)O)C(=O)O)C(C)C [ISG20 peptide G6Q] , please.
Result: 4.39

====

Recorded IC50 by entry
# tested_system: ERK2 R133K (Mus musculus, UniProt P63085, R133K)
# Construct: His6; made in house; host or cells: E. coli BL21(DE3), co-expressed with GST-MEK1ΔN3
# Sequence (P63085 whole entry R133K): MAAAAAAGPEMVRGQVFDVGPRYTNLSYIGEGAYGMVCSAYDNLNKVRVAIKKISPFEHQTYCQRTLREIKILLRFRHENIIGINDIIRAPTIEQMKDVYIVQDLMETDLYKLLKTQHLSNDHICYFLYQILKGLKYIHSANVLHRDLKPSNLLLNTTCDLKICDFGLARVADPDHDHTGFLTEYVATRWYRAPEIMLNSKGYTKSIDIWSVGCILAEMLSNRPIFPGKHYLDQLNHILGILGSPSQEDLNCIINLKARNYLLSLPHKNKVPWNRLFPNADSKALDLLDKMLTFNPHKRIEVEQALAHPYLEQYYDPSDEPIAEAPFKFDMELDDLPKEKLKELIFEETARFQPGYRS
# method_description: Competitive peptide kinase assay (D-peptide inhibition), ERK2 R133K
# Assay type: biochemical
# settings: Table S1, 5 μM reporter peptide, 10 nM ERK2, 10 μM ATP, three independent experiments
Peptide text beside a SMILES is read from it.
I only need the number, in µM, no unit after it.

Use these answered entries as a reference point.
CC(C)C[C@H](NC(=O)[C@H](CC(C)C)NC(=O)[C@H](CC(C)C)NC(=O)[C@H](CCCNC(=N)N)NC(=O)[C@H](CCCCN)NC(=O)[C@@H]1CCCN1C(=O)[C@H](CCCCN)NC(=O)[C@@H]1CCCN1C(=O)CNC(=O)[C@H](CCCNC(=N)N)NC(=O)[C@H](CCCCN)NC(=O)[C@H](CCCNC(=N)N)NC(=O)[C@H](C)NC(=O)[C@@H](N)Cc1ccc(O)cc1)C(=O)N[C@@H](CCC(N)=O)C(=O)N[C@@H](CCCNC(=N)N)C(=O)O [CBX7] (H-YARKRGPKPKRLLLQR-OH); 5.7
CC[C@H](C)[C@H](NC(=O)[C@H](CC(C)C)NC(=O)[C@@H]1CCCN1C(=O)[C@H](CCC(=O)O)NC(=O)[C@@H]1CCCN1C(=O)[C@H](CCCNC(=N)N)NC(=O)[C@@H]1CCCN1C(=O)[C@H](CCCNC(=N)N)NC(=O)[C@H](CCC(N)=O)NC(=O)[C@H](CCCCN)NC(=O)[C@@H]1CCCN1C(=O)[C@H](C)NC(=O)[C@@H](N)Cc1ccc(O)cc1)C(=O)N[C@H](C(=O)N1CCC[C@H]1C(=O)N[C@H](C(=O)O)[C@@H](C)O)[C@@H](C)CC [ELMSAN1] (H-YAPKQRPRPEPLIIPT-OH); 27

Attention now turns to another entry.
Request: Request body: readout IC50, system ERK2 R133K (Mus musculus, UniProt P63085, R133K), query CSCC[C@H](NC(=O)[C@H](CC(C)C)NC(=O)[C@H](C)NC(=O)[C@@H](N)Cc1ccc(O)cc1)C(=O)N[C@@H](CCC(=O)O)C(=O)N[C@@H](CCCNC(=N)N)C(=O)N[C@@H](CCCNC(=N)N)C(=O)N[C@@H](CCCNC(=N)N)C(=O)N[C@@H](CC(C)C)C(=O)N[C@@H](CC(N)=O)C(=O)N[C@@H](CCC(N)=O)C(=O)N[C@@H](CC(C)C)C(=O)N[C@@H](CC(C)C)C(=O)N[C@@H](CC(C)C)C(=O)N1CCC[C@H]1C(=O)N[C@@H](CC(C)C)C(=O)O [ANAPC5] (H-YALMERRRLNQLLLPL-OH) . Return the value.
Result: 340

====

# tested_system: ERK2 D319N (Mus musculus, UniProt P63085, D319N)
# Construct: His6
# Sequence (P63085 whole entry D319N): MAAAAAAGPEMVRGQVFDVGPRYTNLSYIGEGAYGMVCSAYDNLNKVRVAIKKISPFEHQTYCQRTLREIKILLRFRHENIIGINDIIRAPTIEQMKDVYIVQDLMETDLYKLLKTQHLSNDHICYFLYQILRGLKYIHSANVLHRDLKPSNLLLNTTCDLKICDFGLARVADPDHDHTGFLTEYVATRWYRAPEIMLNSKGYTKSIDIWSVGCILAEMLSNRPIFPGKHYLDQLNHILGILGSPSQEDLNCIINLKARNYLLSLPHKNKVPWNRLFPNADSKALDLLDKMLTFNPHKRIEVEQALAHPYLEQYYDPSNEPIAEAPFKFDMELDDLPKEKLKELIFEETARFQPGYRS
# method_description: Competitive peptide kinase assay (D-peptide inhibition), ERK2 D319N
# settings: Table S1, 5 μM reporter peptide, 10 nM ERK2, 10 μM ATP, three independent experiments
Peptide text beside a SMILES is read from it.
// reported IC50 for each item listed
// return numeric value only (unit: µM, not printed)

CC(C)C[C@H](NC(=O)[C@H](CC(=O)O)NC(=O)[C@H](CCCNC(=N)N)NC(=O)[C@@H]1CCCN1C(=O)[C@H](CCCCN)NC(=O)[C@H](CCCNC(=N)N)NC(=O)CNC(=O)[C@H](CCCCN)NC(=O)[C@H](C)NC(=O)[C@@H](N)Cc1ccc(O)cc1)C(=O)N[C@@H](CCC(=O)O)C(=O)N[C@@H](CC(C)C)C(=O)N1CCC[C@H]1C(=O)N[C@@H](CC(C)C)C(=O)N[C@@H](CO)C(=O)N1CCC[C@H]1C(=O)O [ELK1] (H-YAKGRKPRDLELPLSP-OH); 32

Alright, here's another compound for you.
Request: Field request: IC50 | item: CC(C)C[C@H](NC(=O)[C@H](C)NC(=O)[C@@H](N)Cc1ccc(O)cc1)C(=O)NCC(=O)N[C@@H](CO)C(=O)N[C@@H](CCCNC(=N)N)C(=O)N[C@@H](CCCNC(=N)N)C(=O)NCC(=O)N[C@@H](CCCNC(=N)N)C(=O)N[C@@H](CO)C(=O)N[C@@H](CO)C(=O)N[C@@H](CC(C)C)C(=O)N[C@@H](CO)C(=O)N[C@@H](CC(C)C)C(=O)N[C@@H](C)C(=O)N[C@@H](CCCCN)C(=O)O [ARHGEF2]
Result: 300

====

# Tested on: WT ERK2
# method_description: Y2H D-site library screen, WT ERK2
# Type: cell-based, rat
# Set-up: key: ES = slope of ln(Ft/F0) vs number of yeast population doublings
# settings: mutant ES is the combined average ES from the D319N and E320K screens
endpoint_label: WT ES - mutant ES
Answer field: number only, no words.

Some solved cases for reference:
RLQERRGSNVALML [PTPN7, D-site 14-mer in ELK1 Y2H prey]; 0.474
RLRNRNCLELKIKD [ANKRD12, D-site 14-mer in ELK1 Y2H prey]; 0.443
RLLWRRLKPLILGK [ABCA7, D-site 14-mer in ELK1 Y2H prey]; 0.266
PLFLRRKPVLSFQG [LIG3, D-site 14-mer in ELK1 Y2H prey]; 0.487

Request: Write down the reported WT ES - mutant ES of GSRCARIFRLVLQK [POLR3C, D-site 14-mer in ELK1 Y2H prey] , test system: WT ERK2.
Result: 0.285

Request: GET /values?readout=WT ES - mutant ES&system=WT ERK2&item= CLSWKRMAGIFFLP [GLB1L3, D-site 14-mer in ELK1 Y2H prey]
Result: 0.781

Request: Request body: readout WT ES - mutant ES, system WT ERK2, query LYKRRKESILTIQK [ASPM, D-site 14-mer, start residue 1508, in ELK1 Y2H prey] . Return the value.
Result: 0.329
